These data points were gathered from PubChem BioAssay AID1211.

Reported inhibition of ligand binding values are given for each entry in this list.
- Test Target: Estrogen receptor (Homo sapiens)
- Assay Comment: ERalpha ligand binders by competition, primary screen, cell-based, Cos7 ERalpha-GFP, flow cytometry (AID 1211);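 further: 0% = DMSO vehicle wells and 100% = no E2-Alexa633 signal left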
- Cond: fluorescent ligand competition, binding inhibition, at 0.1 µM, stronger effect = higher value
Measured Endpoint: inhibition of ligand binding (%)

O=C(Nc1ccccc1[N+](=O)[O-])C1=C(O)CCn2c1nc1ccccc12 = 37
Nc1ccc2nc(CN3CCOCC3)[nH]c2c1 = 41
COC(=O)c1ccc2c(=O)n(CCCCCC(=O)NCc3ccc4c(c3)OCO4)c(=O)[nH]c2c1 = 18
O=C(c1cc2ncc(Br)cn2n1)N1CCN(C(=O)c2ccco2)CC1 = 15
COc1cccc(-c2nnc(NC(=O)Cc3cccs3)s2)c1 = 20
O=c1oc2c(O)c(O)cc3c(=O)oc4c(O)c(O)cc1c4c23 = 4
Cc1cs/c(=N\N=C\c2ccc(O)cc2)n1Cc1ccco1 = 55
Cc1cc(NC(=O)CSc2cn(CCNC(=O)c3ccc(Cl)cc3)c3ccccc23)no1 = 37
CC(C)c1ccc2c(c1)[C@H]1OCC[C@H]1[C@@H](c1cccs1)N2 = 20
Cc1ccc(-c2nnc(-c3ccc(NC(=O)c4ccco4)cc3)o2)cc1 = 8
O=C(CCCn1c(=S)[nH]c2cc3c(cc2c1=O)OCO3)N1CCN(c2ccc(Cl)cc2)CC1 = 27
O=C(NCCN1CCOCC1)c1cnn2c(-c3ccccc3)cc(-c3ccccc3)nc12 = 8
CCOc1ccc(N=C2NC(=O)S/C2=C\c2ccc(OC)cc2)cc1 = 26
CCN1CCc2nc(NC(=O)Cc3ccc4c(c3)OCCO4)sc2C1 = 31
CCn1c2ccccc2c2cc(NC(=O)CSc3nnc(-c4ccc(OC)cc4)n3N)ccc21 = 17
COc1ccc(NC(=O)C(NC(=O)c2ccc(=O)[nH]c2)c2ccc(C)cc2)cc1 (configuration not stated) = 13
Cc1cc(Cl)ccc1OCC(=O)OC(C)C(=O)N(C)C (configuration not stated) = 53
O=C(Nc1ccc(O)cc1C(=O)O)c1ccc2c(c1)C(=O)N(Cc1ccco1)C2=O = 86
Cc1ccc(C(=O)NCC(=O)OCC(=O)c2c(N)n(C)c(=O)n(C)c2=O)s1 = 5
COc1cc(/C=C2\OC(=O)c3c(OC)cccc32)ccc1O = 28
CCOC(=O)c1c(/N=C/c2ccc(O)cc2O)sc2c1CCC2 = 42
Nc1nc2c(s1)CCc1c-2cnn1-c1ccccc1 = 21
